Consider the following binders and their measured cAMP Rel EC50 (in the presence of 1% HSA) readings.
Target: human glucagon receptor (human) (UniProt P47871)
Sequence (P47871 26-477): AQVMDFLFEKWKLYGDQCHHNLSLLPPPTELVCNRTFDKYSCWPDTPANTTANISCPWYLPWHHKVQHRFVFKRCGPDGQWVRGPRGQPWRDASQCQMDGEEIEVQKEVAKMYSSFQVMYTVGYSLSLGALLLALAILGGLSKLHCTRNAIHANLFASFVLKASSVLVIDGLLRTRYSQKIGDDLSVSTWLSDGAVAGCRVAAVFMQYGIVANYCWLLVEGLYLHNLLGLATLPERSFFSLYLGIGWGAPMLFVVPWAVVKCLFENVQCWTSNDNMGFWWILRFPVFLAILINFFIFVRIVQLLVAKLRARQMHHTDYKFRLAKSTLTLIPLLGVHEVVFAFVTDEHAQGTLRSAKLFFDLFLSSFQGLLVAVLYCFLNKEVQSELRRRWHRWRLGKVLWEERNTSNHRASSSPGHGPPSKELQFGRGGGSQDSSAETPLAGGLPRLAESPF
Experiment: cell-based or functional assay
assay endpoint: cAMP Rel EC50 (in the presence of 1% HSA) (µM)

INSERT INTO results (binder, uom, obs_value) VALUES
  ('YXQGTFTSDXSKXLDKKAQXAFIEYLIAXGESSGEPPPSGE (non-natural residues, AEEA-γGlu-diacid acylated Lys, C-terminal amide; synthetic construct; SITE 2: note = 2-Aminoisobutyric Acid; SITE 10: note = 3-(4-Pyridyl)-L-alanine; SITE 13: note = alpha-methyl-leucine; SITE 17: note = Lysine is chemically modified through conjugation of the epsilon-amino group of the Lysine side chain with (2-[2-(2-Amino-ethoxy)-ethoxy]-acetyl)) [Example 286]', 'µM', 0.228),
  ('YXQGTFTSDFSKXLDKKAQXAFIEYLLAGGPSSGAPPPSSG (synthetic construct; SITE 2: note = 2-Aminoisobutyric Acid; SITE 13: note = alpha-methyl-leucine; SITE 17: note = Lysine is chemically modified through conjugation of the epsilon-amino group of the Lysine side chain with (2-[2-(2-Amino-ethoxy)-ethoxy]-acetyl)-(gamma-Glu)-CO-(CH2) 18-CO2H; SITE 20: n) [Example 13]', 'µM', 1.67),
  ('YXQGTFTSDFSXXLDKKAQXAFIEWLLEGGSSSGAPPPGGT (Aib, Orn, αMeL; acylated lysine; amide; synthetic construct; SITE 2: note = 2-Aminoisobutyric Acid; SITE 12: note = L-ornithine; SITE 13: note = alpha-methyl-leucine; SITE 17: note = Lysine is chemically modified through conjugation of the epsilon-amino group of the Lysine side chain with (2-[2-(2-Amino-ethoxy)-ethoxy]-acetyl)-(gamma-Glu)) [Example 272]', 'µM', 1.54),
  ('YXQGTFTSDXSKXLDKKAQXAFIEYLIEAGESSGEPPPSGS (non-natural residues, AEEA-γGlu-diacid acylated Lys, C-terminal amide; synthetic construct; SITE 2: note = 2-Aminoisobutyric Acid; SITE 10: note = 3-(4-Pyridyl)-L-alanine; SITE 13: note = alpha-methyl-leucine; SITE 17: note = Lysine is chemically modified through conjugation of the epsilon-amino group of the Lysine side chain with (2-[2-(2-Amino-ethoxy)-ethoxy]-acetyl)) [Example 284]', 'µM', 1.53),
  ('YXQGTXTSDXSIXLDKKAQXAFIEYLEEGGPSSGEPPPSGEGE (non-natural residues; lipidated Lys; C-terminal amide; synthetic construct; SITE 2: note = 2-Aminoisobutyric Acid; SITE 6: note = alpha-methyl-2-fluoro-L-phenylalanine; SITE 10: note = 3-(4-Pyridyl)-L-alanine; SITE 13: note = alpha-methyl-leucine; SITE 17: note = Lysine is chemically modified through conjugation of the epsilon-amino group of the Lysine) [Example 625]', 'µM', 0.657),
  ('YXQGTXTSDXSILLDKKAQXAFIEYLEEGGPSSGAPPPSGAGE (non-natural residues, acylated Lys, C-terminal amide; synthetic construct; SITE 2: note = 2-Aminoisobutyric Acid; SITE 6: note = alpha-methyl-2-fluoro-L-phenylalanine; SITE 10: note = 3-(4-Pyridyl)-L-alanine; SITE 17: note = Lysine is chemically modified through conjugation of the epsilon-amino group of the Lysine side chain with (gamma-Glu)2-CO-(CH2)1) [Example 620]', 'µM', 0.665),
  ('YXQGTFTSDFSXXLDKKAQXAFIEWLLEGGPSSGAPPPEGX (non-natural residues; acylated Lys; C-terminal amide; synthetic construct; SITE 2: note = 2-Aminoisobutyric Acid; SITE 12: note = L-ornithine; SITE 13: note = alpha-methyl-leucine; SITE 17: note = Lysine is chemically modified through conjugation of the epsilon-amino group of the Lysine side chain with (2-[2-(2-Amino-ethoxy)-ethoxy]-acetyl)-(gamma-Glu)) [Example 262]', 'µM', 0.72),
  ('YXQGTXTSDXXIXLDXKAQXEFIEXLVEGGPSSGEPPPEGE (not fully specified; non-natural residues; AEEA-γGlu-C18 diacid on Lys; C-terminal amide; synthetic construct; SITE 2: note = 2-Aminoisobutyric Acid; SITE 6: note = alpha-methyl-2-fluoro-L-phenylalanine; SITE 10: note = 3-(4-Pyridyl)-L-alanine; SITE 11: note = alpha-methyl-L-serine; SITE 13: note = alpha-methyl-leucine; SITE 16: note = L-ornithine; SITE 17: note = Lysine is chemically mo) [Example 1159]', 'µM', 0.238),
  ('YXQGTFTSDXSKXLDKKAQXAFIEYLIEXGESSGAPPPSGS (non-natural residues, acylated Lys, C-terminal amide; synthetic construct; SITE 2: note = 2-Aminoisobutyric Acid; SITE 10: note = 3-(4-Pyridyl)-L-alanine; SITE 13: note = alpha-methyl-leucine; SITE 17: note = Lysine is chemically modified through conjugation of the epsilon-amino group of the Lysine side chain with (2-[2-(2-Amino-ethoxy)-ethoxy]-acetyl)) [Example 280]', 'µM', 1.6),
  ('YXQGTFTSDXSKXLDKKAQXAFIEYLIAXGESSGEPPPSGS (non-natural residues (Aib, 4Pal, αMeL); lipidated K; C-terminal amide; synthetic construct; SITE 2: note = 2-Aminoisobutyric Acid; SITE 10: note = 3-(4-Pyridyl)-L-alanine; SITE 13: note = alpha-methyl-leucine; SITE 17: note = Lysine is chemically modified through conjugation of the epsilon-amino group of the Lysine side chain with (2-[2-(2-Amino-ethoxy)-ethoxy]-acetyl)) [Example 287]', 'µM', 0.291),
  ('YXQGTFTSDFSKXLDKKAQXAFIEYLLAGGPSSGAPPPSGG (synthetic construct; SITE 2: note = 2-Aminoisobutyric Acid; SITE 13: note = alpha-methyl-leucine; SITE 17: note = Lysine is chemically modified through conjugation of the epsilon-amino group of the Lysine side chain with (2-[2-(2-Amino-ethoxy)-ethoxy]-acetyl)-(gamma-Glu)-CO-(CH2) 18-CO2H; SITE 20: n) [Example 12]', 'µM', 1.49),
  ('YXQGTXTSDXSILLDKKAQXAFIEYLEEGGPSSGEPPPSGTGE (Aib, αMeF(2F), 4Pal; acylated K; C-terminal amide; synthetic construct; SITE 2: note = 2-Aminoisobutyric Acid; SITE 6: note = alpha-methyl-2-fluoro-L-phenylalanine; SITE 10: note = 3-(4-Pyridyl)-L-alanine; SITE 17: note = Lysine is chemically modified through conjugation of the epsilon-amino group of the Lysine side chain with (gamma-Glu)2-CO-(CH2)1) [Example 607]', 'µM', 0.565),
  ('YXQGTFTSDFSXXLDKKAQXAFIEWLLEGGXSSGAPPPSGT (non-natural residues, C-terminal amide, acylated Lys with fatty diacid; synthetic construct; SITE 2: note = 2-Aminoisobutyric Acid; SITE 12: note = L-ornithine; SITE 13: note = alpha-methyl-leucine; SITE 17: note = Lysine is chemically modified through conjugation of the epsilon-amino group of the Lysine side chain with (2-[2-(2-Amino-ethoxy)-ethoxy]-acetyl)-(gamma-Glu)) [Example 268]', 'µM', 1.3),
  ('YXQGTXTSDXXIXLDXKAQXEFIEXLVEGGPSSGEPPPSGE (non-natural residues; lipidated Lys; C-terminal amide; synthetic construct; SITE 2: note = 2-Aminoisobutyric Acid; SITE 6: note = alpha-methyl-2-fluoro-L-phenylalanine; SITE 10: note = 3-(4-Pyridyl)-L-alanine; SITE 11: note = alpha-methyl-L-serine; SITE 13: note = alpha-methyl-leucine; SITE 16: note = L-ornithine; SITE 17: note = Lysine is chemically mo) [Example 1161]', 'µM', 0.217),
  ('YXQGTXTSDXXIXLDXKAQXEFIEXLIEGGPPSXEPPPEGE (non-natural residues, C-terminal amide, acylated Lys with fatty diacid; synthetic construct; SITE 2: note = 2-Aminoisobutyric Acid; SITE 6: note = alpha-methyl-2-fluoro-L-phenylalanine; SITE 10: note = 3-(4-Pyridyl)-L-alanine; SITE 11: note = alpha-methyl-L-serine; SITE 13: note = alpha-methyl-leucine; SITE 16: note = L-ornithine; SITE 17: note = Lysine is chemically mo) [Example 1190]', 'µM', 0.192),
  ('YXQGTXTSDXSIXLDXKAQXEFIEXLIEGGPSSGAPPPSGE (non-natural residues; acylated Lys; C-terminal amide; synthetic construct; SITE 2: note = 2-Aminoisobutyric Acid; SITE 6: note = alpha-methyl-2-fluoro-L-phenylalanine; SITE 10: note = 3-(4-Pyridyl)-L-alanine; SITE 13: note = alpha-methyl-leucine; SITE 16: note = L-ornithine; SITE 17: note = Lysine is chemically modified through conjugation of the epsil) [Example 614]', 'µM', 0.724),
  ('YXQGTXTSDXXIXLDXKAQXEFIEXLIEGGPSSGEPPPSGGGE (non-natural residues, lysine acylation, C-terminal amide; synthetic construct; SITE 2: note = 2-Aminoisobutyric Acid; SITE 6: note = alpha-methyl-L-phenylalanine; SITE 10: note = 3-(4-Pyridyl)-L-alanine; SITE 11: note = alpha-methyl-L-serine; SITE 13: note = alpha-methyl-leucine; SITE 16: note = L-ornithine; SITE 17: note = Lysine is chemically modified th) [Example 1175]', 'µM', 0.282),
  ('YXQGTFTSDFSKXLDKKAQXAFIEYLLAGGPSSGAPPPSEG (synthetic construct; SITE 2: note = 2-Aminoisobutyric Acid; SITE 13: note = alpha-methyl-leucine; SITE 17: note = Lysine is chemically modified through conjugation of the epsilon-amino group of the Lysine side chain with (2-[2-(2-Amino-ethoxy)-ethoxy]-acetyl)-(gamma-Glu)-CO-(CH2) 18-CO2H; SITE 20: n) [Example 10]', 'µM', 1.64),
  ('YXQGTXTSDXXIXLDXKAQXEFIEXLVEGGPSSGAPPPSGE (non-natural residues; lipidated Lys; C-terminal amide; synthetic construct; SITE 2: note = 2-Aminoisobutyric Acid; SITE 6: note = alpha-methyl-2-fluoro-L-phenylalanine; SITE 10: note = 3-(4-Pyridyl)-L-alanine; SITE 11: note = alpha-methyl-L-serine; SITE 13: note = alpha-methyl-leucine; SITE 16: note = L-ornithine; SITE 17: note = Lysine is chemically mo) [Example 1160]', 'µM', 0.183),
  ('YXQGTXTSDXXIXLDXKAQXEFIEXLIEGGPPSXXPPPEGE (Aib, αMeF(2F), 4Pal, αMeS, αMeL, Orn, Me4Pal, αMeY; lipidated Lys; amide; synthetic construct; SITE 2: note = 2-Aminoisobutyric Acid; SITE 6: note = alpha-methyl-2-fluoro-L-phenylalanine; SITE 10: note = 3-(4-Pyridyl)-L-alanine; SITE 11: note = alpha-methyl-L-serine; SITE 13: note = alpha-methyl-leucine; SITE 16: note = L-ornithine; SITE 17: note = Lysine is chemically mo) [Example 1194]', 'µM', 0.215),
  ('YXQGTFTSDFSRXLDKKAQXAFIEYLLEXGPSSGAPPPGGS (synthetic construct; SITE 2: note = 2-Aminoisobutyric Acid; SITE 13: note = alpha-methyl-leucine; SITE 17: note = Lysine is chemically modified through conjugation of the epsilon-amino group of the Lysine side chain with (2-[2-(2-Amino-ethoxy)-ethoxy]-acetyl)-(gamma-Glu)-CO-(CH2) 18-CO2H; SITE 20: n) [Example 42]', 'µM', 1.52),
  ('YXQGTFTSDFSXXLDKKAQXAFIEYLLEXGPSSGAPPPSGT (Aib, Orn, alpha-methyl-Leu, lipidated Lys, C-terminal amide; synthetic construct; SITE 2: note = 2-Aminoisobutyric Acid; SITE 12: note = L-ornithine; SITE 13: note = alpha-methyl-leucine; SITE 17: note = Lysine is chemically modified through conjugation of the epsilon-amino group of the Lysine side chain with (gamma-Glu)-(2-[2-(2-Amino-ethoxy)-ethoxy]-acetyl)) [Example 276]', 'µM', 0.113),
  ('YXQGTXTSDXSIXLDXKAQXEFIEXLAEGGPSSGAPPPSGS (non-natural residues, lysine acylation, C-terminal amide; synthetic construct; SITE 2: note = 2-Aminoisobutyric Acid; SITE 6: note = alpha-methyl-2-fluoro-L-phenylalanine; SITE 10: note = 3-(4-Pyridyl)-L-alanine; SITE 13: note = alpha-methyl-leucine; SITE 16: note = L-ornithine; SITE 17: note = Lysine is chemically modified through conjugation of the epsil) [Example 642]', 'µM', 0.519),
  ('YXQGTFTSDXXQXLDXKAQXQFIEXLIEXGPSSGAPPPSGGGE (not fully specified; non-natural residues; γGlu-C18 diacid on Lys; C-terminal amide; synthetic construct; SITE 2: note = 2-Aminoisobutyric Acid; SITE 10: note = 3-(4-Pyridyl)-L-alanine; SITE 11: note = alpha-methyl-L-serine; SITE 13: note = alpha-methyl-leucine; SITE 16: note = L-ornithine; SITE 17: note = Lysine is chemically modified through conjugation of the epsilon-amino group) [Example 1187]', 'µM', 0.37);

Attribution: patent US20240270821A1
